These measurements were taken from paper PMC5643385.

Parameter: pKi. Scope: all listed entries.
measured_target: UniProt P41146
Sequence (P41146 whole entry): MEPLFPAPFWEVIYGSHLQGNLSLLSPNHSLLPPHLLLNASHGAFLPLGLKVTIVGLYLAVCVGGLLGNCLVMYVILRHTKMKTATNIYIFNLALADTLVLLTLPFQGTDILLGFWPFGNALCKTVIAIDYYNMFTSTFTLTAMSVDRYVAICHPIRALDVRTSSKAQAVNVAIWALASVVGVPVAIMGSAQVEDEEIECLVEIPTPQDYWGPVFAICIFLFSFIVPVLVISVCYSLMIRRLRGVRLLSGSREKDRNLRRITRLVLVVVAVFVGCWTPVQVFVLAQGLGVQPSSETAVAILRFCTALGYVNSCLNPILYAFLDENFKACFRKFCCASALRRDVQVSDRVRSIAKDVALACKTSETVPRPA
experimental_details: Radioligand competition binding, [3H]N/OFQ, membranes of transfected CHO cells
Bear in mind: pKi is minus log10 of a mol/L concentration; give just that figure.

# annotated cases, reported pKi shown
>>> df
                           structure_smiles  recorded_endpoint  value_observed
0  CC(C)[C@@H](CN1CCC(c2cccc(C#N)c2)CC1)NC(=O)[C@H]1Cc2ccc(O)cc2CN1                pKi            7.21
1  CC(C)[C@@H](CN1CCC(c2cccc(CNC(=O)[C@@H](N)CCCNC(=N)N)c2)CC1)NC(=O)[C@H]1Cc2ccccc2CN1                pKi            7.36
2  CC(C)[C@@H](CN1CCC(c2cccc(CN)c2)CC1)NC(=O)[C@H]1Cc2ccc(O)cc2CN1                pKi            7.51

(Q) Please state recorded pKi (tested on UniProt P41146) of `CC(C)[C@@H](CN1CCC(C2CCCCC2)CC1)NC(=O)[C@H]1Cc2ccc(O)cc2CN1`
(A) 7.07

(Q) Also, `CC(C)[C@@H](CN1CCC(c2cccc(CNC(=O)[C@@H](N)CCCNC(=N)N)c2)CC1)NC(=O)[C@H]1Cc2ccc(O)cc2CN1` please.
(A) 8.22
